target: α-Glucosidase (EC 3.2.1.20) from Saccharomyces cerevisiae (Baker's yeast) (Saccharomyces cerevisiae, UniProt P53341)
Construct: purchased Sigma-Aldrich (St. Louis, MO)
Sequence (P53341 whole entry): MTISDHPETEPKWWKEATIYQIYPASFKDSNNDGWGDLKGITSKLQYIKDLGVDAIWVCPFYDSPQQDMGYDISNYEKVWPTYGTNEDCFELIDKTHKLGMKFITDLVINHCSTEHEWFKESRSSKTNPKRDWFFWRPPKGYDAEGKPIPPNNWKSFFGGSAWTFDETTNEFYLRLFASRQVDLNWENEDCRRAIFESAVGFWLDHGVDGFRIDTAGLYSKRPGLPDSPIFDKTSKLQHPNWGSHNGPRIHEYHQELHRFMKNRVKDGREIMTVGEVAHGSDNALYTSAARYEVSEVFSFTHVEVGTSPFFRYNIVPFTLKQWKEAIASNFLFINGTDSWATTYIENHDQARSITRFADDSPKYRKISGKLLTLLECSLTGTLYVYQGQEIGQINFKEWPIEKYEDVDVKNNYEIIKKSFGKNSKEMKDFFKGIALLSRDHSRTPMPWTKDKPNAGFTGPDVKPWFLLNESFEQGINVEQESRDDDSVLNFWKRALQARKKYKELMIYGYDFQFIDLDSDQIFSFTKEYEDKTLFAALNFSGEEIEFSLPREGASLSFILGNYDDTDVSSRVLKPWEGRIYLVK
test-summary: biochemical
setup-conditions: experimental IC50 yeast α-glucosidase, restated in mM in docking section
readout-type: IC50
Put down the number, then write its unit next to it.

q: Could you share which IC50 value was measured for C=C(C)[C@@H]1CC[C@]2(C)CC[C@]3(C)[C@H](CC[C@@H]4[C@@]5(C)CC[C@H](O)C(C)(C)[C@@H]5CC[C@]43C)[C@@H]12 [Compound 1, lupeol] ?
a: 0.037 mM

----------
test-summary: DPPH radical scavenging activity
setup-conditions: compounds, Table 2
Provide the recorded IC50 for the entries that follow.

Return reported IC50 values for all items listed beneath this line.
1. C=C(C)[C@@H]1CC[C@]2(C(=O)O)CC[C@]3(C)[C@H](CC[C@@H]4[C@@]5(C)CC[C@H](OC(=O)CCCC)C(C)(C)[C@@H]5CC[C@]43C)[C@@H]12 [Compound 2d]
2. C=C(C)[C@@H]1CC[C@]2(C(=O)N(C(=O)NC3CCCCC3)C3CCCCC3)CC[C@]3(C)[C@H](CC[C@@H]4[C@@]5(C)CC[C@H](OC(=O)CCCC)C(C)(C)[C@@H]5CC[C@]43C)[C@@H]12 [Compound 2k]
3. C=C(C)[C@@H]1CC[C@]2(C(=O)O)CC[C@]3(C)[C@H](CC[C@@H]4[C@@]5(C)CC[C@H](OC(=O)CCC)C(C)(C)[C@@H]5CC[C@]43C)[C@@H]12 [Compound 2c]
4. Cc1cc(C(C)(C)C)c(O)c(C(C)(C)C)c1 [BHT, reference compound]
5. C=C(C)[C@@H]1CC[C@]2(C(=O)N(C(=O)NC3CCCCC3)C3CCCCC3)CC[C@]3(C)[C@H](CC[C@@H]4[C@@]5(C)CC[C@H](OC(C)=O)C(C)(C)[C@@H]5CC[C@]43C)[C@@H]12 [Compound 2h]

a:
> 10 mM
> 10 mM
> 10 mM
0.328 mM
> 10 mM
